Molecular target: Androgen Receptor (Homo sapiens, UniProt P10275)
Construct: endogenous in cells; host or cells: VCaP cells
Assay: Androgen Receptor ELISA assay (PathScan AR ELISA) in VCaP cells: AR degradation, Dmax and DC50
Assay type: cell-based
Conditions: read-out: VCaP DC50; VCaP cells; Table 36
Measured metric: DC50

[[record]]
compound = "Cc1ncsc1-c1ccc([C@H](CO)NC(=O)C2C[C@@H](O)CN2C(=O)C(NC(=O)CN2C3CCC2CN(CCCc2ccc(C(=O)NC4C(C)(C)C(Oc5ccc(C#N)c(Cl)c5)C4(C)C)cc2)C3)C(C)(C)C)cc1 (stereo partly shown)"
measured_metric = "DC50"
data_value = "< 50 nM"

[[record]]
compound = "Cc1ncsc1-c1ccc([C@H](C)NC(=O)[C@@H]2C[C@@H](O)CN2C(=O)[C@H](C(C)C)n2cc(Oc3cccc(OCCCCCOc4ccc(N5C(=S)N(c6ccc(C#N)c(C(F)(F)F)c6)C(=O)C5(C)C)cc4)c3)cn2)cc1"
measured_metric = "DC50"
data_value = "> 501 nM"

[[record]]
compound = "Cc1ncsc1-c1ccc([C@H](C)NC(=O)[C@@H]2C[C@@H](O)CN2C(=O)[C@@H](C(C)C)n2cc(Oc3ccc(OC4CCC(Oc5ccc(N6C(=S)N(c7ccc(C#N)c(C(F)(F)F)c7)C(=O)C6(C)C)cc5)CC4)nc3)cn2)cc1 (stereo partly shown)"
measured_metric = "DC50"
data_value = "> 501 nM"

[[record]]
compound = "Cc1ncsc1-c1ccc([C@H](C)NC(=O)[C@@H]2CC3CN2C(=O)C(C(C)(C)C)NC(=O)COCCCOCCC(CCOc2ccc(N4C(=S)N(c5ccc(C#N)c(C(F)(F)F)c5)C(=O)C4(C)C)cc2)OC(=O)CC/C=C/CCC(=O)O3)cc1 (stereo partly shown) [Example 620]"
measured_metric = "DC50"
data_value = "> 501 nM"


###

Target: Androgen Receptor (Homo sapiens)
Construct: endogenous in cells; host or cells: VCaP cells
Assay: Androgen Receptor ELISA assay (PathScan AR ELISA) in VCaP cells: AR degradation, Dmax and DC50
Assay type: cell-based
Details: concentration that caused 50% Androgen Receptor degradation, VCaP cells (Table 32); read-out: VCaP DC50
Measured metric: DC50

[[record]]
molecule = "Cc1ncsc1-c1ccc(CNC(=O)[C@@H]2C[C@@H](O)CN2C(=O)[C@@H](NC(=O)COCCCCOc2ccc(C(=O)N[C@H]3C(C)(C)[C@H](Oc4ccc(C#N)c(Cl)c4)C3(C)C)cc2)C(C)(C)C)cc1"
measured_metric = "DC50"
data_value = "< 50 nM"

[[record]]
molecule = "Cc1ncsc1-c1ccc([C@H](C)NC(=O)[C@@H]2C[C@@H](O)CN2C(=O)[C@@H](NC(=O)COCCCCCNc2ccc(C(=O)N[C@H]3C(C)(C)[C@H](Oc4ccc(C#N)c(Cl)c4)C3(C)C)cc2)C(C)(C)C)cc1"
measured_metric = "DC50"
data_value = "< 50 nM"


###

Target: Androgen Receptor (Homo sapiens)
Construct: endogenous in cells; host or cells: VCaP cells
Assay: Androgen Receptor ELISA assay (PathScan AR ELISA) in VCaP cells: AR degradation, Dmax and DC50
Format: cell-based
Conditions: VCaP, read-out: VCaP Dmax (%)
compounds and their reported Dmax
Measured metric: Dmax

[[record]]
compound = "Cc1ncsc1-c1ccc([C@H](C)NC(=O)[C@@H]2C[C@@H]3CN2C(=O)[C@H](C(C)(C)C)NC(=O)COCCCOCCC(CCOc2ccc(N4C(=S)N(c5ccc(C#N)c(C(F)(F)F)c5)C(=O)C4(C)C)cc2)OC(=O)CCc2cn(nn2)CCCCCC(=O)O3)cc1 (stereo partly drawn)"
data_value = "< 25%"

[[record]]
compound = "Cc1ncsc1-c1ccc([C@H](C)NC(=O)[C@@H]2C[C@@H](O)CN2C(=O)[C@@H](NC(=O)COCCCCOCCCCOc2ccc(N3C(=S)N(c4ccc(C#N)c(C(F)(F)F)c4)C(=O)C3(C)C)cc2)C(C)(C)C)cc1"
data_value = "51 to 70%"

[[record]]
compound = "Cc1ncsc1-c1ccc(CNC(=O)[C@@H]2C[C@@H](O)CN2C(=O)[C@@H](NC(=O)CCCOCCCOCCOc2ccc(N3C(=S)N(c4ccc(C#N)c(C(F)(F)F)c4)C(=O)C3(C)C)cc2)C(C)(C)C)cc1"
data_value = "26 to 50%"

[[record]]
compound = "Cc1ncsc1-c1ccc(CNC(=O)[C@@H]2C[C@@H](O)CN2C(=O)[C@@H](NC(=O)COCCOCCOc2ccc(-c3ccc(N4C(=S)N(c5ccc(C#N)c(C(F)(F)F)c5)C(=O)C4(C)C)cc3F)cc2)C(C)(C)C)cc1"
data_value = "51 to 70%"

[[record]]
compound = "Cc1ncsc1-c1ccc([C@H](C)NC(=O)[C@@H]2C[C@@H](O)CN2C(=O)[C@@H](NC(=O)CN2C[C@@H](C)N(CCCc3ccc(C(=O)N[C@H]4C(C)(C)[C@H](Oc5ccc(C#N)c(Cl)c5)C4(C)C)cc3)C[C@@H]2C)C(C)(C)C)cc1"
data_value = "> 71%"

[[record]]
compound = "Cc1ncsc1-c1ccc(CNC(=O)[C@@H]2C[C@@H](O)CN2C(=O)[C@H](C(C)C)n2cc(Oc3cccc(OCCCCCOc4ccc(N5C(=S)N(c6ccc(C#N)c(C(F)(F)F)c6)C(=O)C5(C)C)cc4)c3)cn2)cc1"
data_value = "< 25%"

[[record]]
compound = "Cc1ncsc1-c1ccc(CNC(=O)[C@@H]2C[C@@H](O)CN2C(=O)[C@@H](NC(=O)COCCCOCCCOc2ccc(N3C(=S)N(c4ccc(C#N)c(C(F)(F)F)c4)C(=O)C3(C)C)cc2)C(C)(C)C)cc1"
data_value = "< 25%"

[[record]]
compound = "Cc1ncsc1-c1ccc(CNC(=O)[C@@H]2C[C@@H](O)CN2C(=O)[C@@H](NC(=O)COCCCCOc2cccc(-c3ccc(N4C(=S)N(c5ccc(C#N)c(C(F)(F)F)c5)C(=O)C4(C)C)cc3)c2)C(C)(C)C)cc1"
data_value = "51 to 70%"

[[record]]
compound = "Cc1ncsc1-c1ccc([C@H](C)NC(=O)[C@@H]2C[C@@H](O)CN2C(=O)[C@H](C(C)C)n2cc(OCCCOCCC(O)CCOc3ccc(N4C(=S)N(c5ccc(C#N)c(C(F)(F)F)c5)C(=O)C4(C)C)cc3)cn2)cc1 (stereo partly drawn)"
data_value = "26 to 50%"


###

Biological target: Androgen Receptor (Homo sapiens, UniProt P10275)
Construct: endogenous in cells; host or cells: VCaP cells
Sequence (P10275 1-920): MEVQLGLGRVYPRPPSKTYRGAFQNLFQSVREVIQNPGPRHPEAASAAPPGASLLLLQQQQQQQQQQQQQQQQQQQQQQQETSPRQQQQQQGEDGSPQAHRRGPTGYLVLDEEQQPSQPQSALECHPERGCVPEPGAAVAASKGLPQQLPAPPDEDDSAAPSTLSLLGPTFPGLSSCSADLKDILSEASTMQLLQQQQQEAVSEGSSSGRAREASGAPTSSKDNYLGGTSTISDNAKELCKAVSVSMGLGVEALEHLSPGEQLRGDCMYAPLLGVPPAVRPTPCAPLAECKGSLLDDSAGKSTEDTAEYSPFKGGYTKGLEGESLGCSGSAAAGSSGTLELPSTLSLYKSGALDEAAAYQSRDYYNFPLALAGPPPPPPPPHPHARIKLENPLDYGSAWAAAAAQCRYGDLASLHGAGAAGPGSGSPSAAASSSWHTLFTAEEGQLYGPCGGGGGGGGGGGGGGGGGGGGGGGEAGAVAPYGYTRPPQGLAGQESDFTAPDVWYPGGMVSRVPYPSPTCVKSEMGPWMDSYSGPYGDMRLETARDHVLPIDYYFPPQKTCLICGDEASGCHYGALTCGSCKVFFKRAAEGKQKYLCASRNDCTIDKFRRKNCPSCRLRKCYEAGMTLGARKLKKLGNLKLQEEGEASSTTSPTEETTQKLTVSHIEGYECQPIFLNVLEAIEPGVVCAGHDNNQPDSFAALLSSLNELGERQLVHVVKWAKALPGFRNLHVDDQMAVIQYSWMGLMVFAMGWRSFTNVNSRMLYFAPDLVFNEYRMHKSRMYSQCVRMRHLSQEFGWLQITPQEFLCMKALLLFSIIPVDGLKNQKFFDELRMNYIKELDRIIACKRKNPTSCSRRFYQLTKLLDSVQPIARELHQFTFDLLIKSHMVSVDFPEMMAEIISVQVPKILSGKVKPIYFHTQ
Assay: Androgen Receptor ELISA assay (PathScan AR ELISA) in VCaP cells: AR degradation, Dmax and DC50
Format: cell-based
Details: VCaP cells; Table 36; read-out: VCaP DC50
Measured metric: DC50

[[record]]
compound = "Cc1ncsc1-c1ccc([C@H](C)NC(=O)[C@@H]2C[C@@H](O)CN2C(=O)[C@@H](NC(=O)CN2CCN(CCCc3ccc(C(=O)N[C@H]4C(C)(C)[C@H](Oc5ccc(C#N)c(C#N)c5)C4(C)C)cc3)CC2)C2COC2)cc1"
data_value = "> 0.501 µM"

[[record]]
compound = "Cc1nc(O[C@H]2C(C)(C)[C@H](NC(=O)c3ccc(N4CCN(CCCN5CCN(CC(=O)O[C@H](C(=O)N6C[C@H](O)C[C@H]6C(=O)N[C@@H](C)c6ccc(-c7scnc7C)cc6)C(C)(C)C)CC5)CC4)nc3)C2(C)C)ccc1C#N"
data_value = "> 0.501 µM"

[[record]]
compound = "Cc1ncsc1-c1ccc([C@H](C)NC(=O)[C@@H]2C[C@@H](O)CN2C(=O)[C@@H](NC(=O)CN2CCN(CCCOCc3cc(C(=O)N[C@@H](C)Cn4ccc(-c5ccc(C#N)c(Cl)c5)n4)n[nH]3)CC2)C(C)(C)C)cc1"
data_value = "< 0.05 µM"

[[record]]
compound = "Cc1ncsc1-c1ccc([C@H](C)NC(=O)[C@@H]2C[C@@H](O)CN2C(=O)[C@@H](NC(=O)CN2CC(N3CCN(c4ccc(C(=O)N[C@H]5C(C)(C)[C@H](Oc6ccc(C#N)c(Cl)c6)C5(C)C)cn4)CC3)C2)C(C)(C)C)cc1"
data_value = "< 0.05 µM"

[[record]]
compound = "Cc1ncsc1-c1ccc([C@H](C)NC(=O)C2C[C@@H](O)CN2C(=O)[C@@H](NC(=O)CCCCCCc2ccc(C(=O)N[C@H]3C(C)(C)[C@H](Oc4ccc(C#N)c(Cl)c4)C3(C)C)cc2)C(C)(C)C)cc1 (stereo partly shown)"
data_value = "< 0.05 µM"

[[record]]
compound = "CC(NC(=O)C1CC(O)CN1C(=O)C(NC(=O)COCCN1CC2CC1CN2c1ccc(C(=O)NC2C(C)(C)C(Oc3ccc(C#N)c(Cl)c3)C2(C)C)cn1)C(C)(C)C)c1ccc(-c2scnc2CO)cc1 (stereo not shown)"
data_value = "0.051 to 0.5 µM"

[[record]]
compound = "Cc1ncsc1-c1ccc([C@H](C)NC(=O)[C@@H]2C[C@@H](O)CN2C(=O)[C@@H](NC(=O)COCCCCCNC23CC(C(=O)N[C@H]4C(C)(C)[C@H](Oc5ccc(C#N)c(Cl)c5)C4(C)C)(C2)C3)C(C)(C)C)cc1"
data_value = "> 0.501 µM"

[[record]]
compound = "Cc1ncsc1-c1ccc([C@H](C)NC(=O)[C@@H]2C[C@@H](O)CN2C(=O)[C@@H](NC(=O)CCCC/C(CCCc2ccc(C(=O)N[C@H]3C(C)(C)[C@H](Oc4ccc(C#N)c(Cl)c4)C3(C)C)nc2)=N\\O)C(C)(C)C)cc1"
data_value = "< 0.05 µM"

[[record]]
compound = "Cc1ncsc1-c1ccc(CNC(=O)[C@@H]2C[C@@H](O)CN2C(=O)[C@H](C(C)C)N2Cc3ccccc3C2=O)c(N2CCN(CCCc3ccc(C(=O)N[C@H]4C(C)(C)[C@H](Oc5ccc(C#N)c(C(F)(F)F)c5)C4(C)C)cc3)CC2)c1"
data_value = "< 0.05 µM"

[[record]]
compound = "Cc1ncsc1-c1ccc([C@H](C)NC(=O)[C@@H]2C[C@@H](O)CN2C(=O)[C@@H](NC(=O)CO[C@H](C)CN2CCN(c3ccc(C(=O)N[C@H]4C(C)(C)[C@H](Oc5ccc(C#N)c(Cl)c5)C4(C)C)cc3)CC2)C(C)(C)C)cc1"
data_value = "< 0.05 µM"

[[record]]
compound = "Cc1ncsc1-c1ccc([C@H](CO)NC(=O)[C@@H]2C[C@@H](O)CN2C(=O)[C@@H](NC(=O)CN2CCN(CCC3CCN(c4ccc(C(=O)N[C@H]5C(C)(C)[C@H](Oc6ccc(C#N)c(Cl)c6)C5(C)C)cn4)C3)CC2)C(C)(C)C)cc1 (stereo partly shown)"
data_value = "< 0.05 µM"

[[record]]
compound = "Cc1ncsc1-c1ccc(CNC(=O)[C@@H]2C[C@@H](O)CN2C(=O)[C@H](C(C)C)N2Cc3ccc(N4CCN(CCCc5ccc(C(=O)N[C@H]6C(C)(C)[C@H](Oc7ccc(C#N)c(Cl)c7)C6(C)C)cc5)CC4)cc3C2=O)cc1"
data_value = "> 0.501 µM"

[[record]]
compound = "Cc1ncsc1-c1ccc(C(C)NC(=O)[C@@H]2C[C@@H](OCOC(=O)OC(C)C)CN2C(=O)[C@@H](NC(=O)COCCCCCNc2ccc(C(=O)N[C@H]3C(C)(C)[C@H](Oc4ccc(C#N)c(Cl)c4)C3(C)C)cc2)C(C)(C)C)cc1 (stereo partly shown)"
data_value = "< 0.05 µM"

[[record]]
compound = "COc1cc(-c2scnc2C)ccc1CNC(=O)C1C[C@@H](O)CN1C(=O)[C@@H](NC(=O)COCCN1CCN(c2ccc(C(=O)N[C@H]3C(C)(C)[C@H](Oc4ccc(C#N)c(Cl)c4)C3(C)C)cn2)CC1)C(C)(C)C (stereo partly shown)"
data_value = "< 0.05 µM"

[[record]]
compound = "CC(NC(=O)C1CC(O)CN1C(=O)C(c1cc(OCCN2CCN(c3ccc(C(=O)NC4C(C)(C)C(Oc5ccc(C#N)c(Cl)c5)C4(C)C)cn3)CC2)no1)C(C)C)c1ccc(C#N)cc1 (stereo not shown)"
data_value = "< 0.05 µM"

[[record]]
compound = "Cc1ncsc1-c1ccc([C@H](C)NC(=O)[C@@H]2C[C@@H](O)CN2C(=O)[C@@H](NC(=O)COCCCOCCCCCOc2ccc(C(=O)N[C@H]3C(C)(C)[C@H](Oc4ccc(C#N)c(Cl)c4)C3(C)C)cc2)C(C)(C)C)cc1"
data_value = "< 0.05 µM"

